Biological target: T1, extracellular domain of human BCMA (human, UniProt Q02223 1-54)
T1 construct: amine-linked to Octet AR2G tips; also called hsBCMA; BCMA (human)
T1 sequence: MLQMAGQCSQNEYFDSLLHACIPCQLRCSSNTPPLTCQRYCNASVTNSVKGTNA
Assay: Octet BLI; Fab 200 nM
Item-by-item account of Kd

{"binder": "AB200-R1H32-R2Vk45 (Fab, V domains shown) VH: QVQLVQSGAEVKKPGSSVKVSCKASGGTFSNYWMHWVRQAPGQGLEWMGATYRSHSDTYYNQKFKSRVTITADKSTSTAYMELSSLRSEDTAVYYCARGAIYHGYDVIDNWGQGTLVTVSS VL: DIQMTQSPSSLSASVGDRVTITCRASQSISSYINWYQQKPGKAPKLLIYATSNLQIGVPSRFSGSGSGTDFTLTISSLQPEDFATYYCQQYRRIPWTFGQGTKLEIKR", "Kd [pM]": 714}
{"binder": "AB200-R1H32-R2Vk19 (Fab, V domains shown) VH: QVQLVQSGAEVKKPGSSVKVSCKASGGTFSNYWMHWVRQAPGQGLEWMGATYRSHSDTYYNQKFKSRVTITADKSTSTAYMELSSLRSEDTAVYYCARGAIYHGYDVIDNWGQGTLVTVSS VL: DIQMTQSPSSLSASVGDRVTITCRASQSISSYLNWYQQKPGKAPKLLIYATSNLQSGVPSRFSGSGSGTDFTLTISSLQPEDFATYYCQQYRRLPWSFGQGTKLEIKR", "Kd [pM]": 946}
{"binder": "AB200-R1H32-R2Vk11 (Fab, V domains shown) VH: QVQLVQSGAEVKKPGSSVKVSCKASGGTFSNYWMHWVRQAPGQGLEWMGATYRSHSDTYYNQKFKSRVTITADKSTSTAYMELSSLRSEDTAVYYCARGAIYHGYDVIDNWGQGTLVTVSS VL: DIQMTQSPSSLSASVGDRVTITCRASQSISSYLNWYQQKPGKAPKLLIYAASSLQSGVPSRFSGSGSGTDFTLTISSLQPEDFATYYCQQFRRLPWTFGQGTKLEIKR", "Kd [pM]": 936}
{"binder": "AB200-R1H32-R2Vk16 (Fab, V domains shown) VH: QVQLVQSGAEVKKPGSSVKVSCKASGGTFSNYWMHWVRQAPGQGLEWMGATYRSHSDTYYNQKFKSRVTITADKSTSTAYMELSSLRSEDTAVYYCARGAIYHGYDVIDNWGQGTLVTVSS VL: DIQMTQSPSSLSASVGDRVTITCRASQSISSYINWYQQKPGKAPKLLIYAASSLQSGVPSRFSGSGSGTDFTLTISSLQPEDFATYYCQQFRRLPWTFGQGTKLEIKR", "Kd [pM]": 1170}
{"binder": "AB200-R1H32-R2Vk43 (Fab, V domains shown) VH: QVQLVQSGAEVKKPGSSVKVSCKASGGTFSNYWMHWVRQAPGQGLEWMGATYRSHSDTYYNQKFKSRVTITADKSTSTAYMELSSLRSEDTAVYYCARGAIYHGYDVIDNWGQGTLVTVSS VL: DIQMTQSPSSLSASVGDRVTITCRASQSISSYINWYQQKPGKAPKLLIYATSNIQSGVPSRFSGSGSGTDFTLTISSLQPEDFATYYCQQFRKIPWTFGQGTKLEIKR", "Kd [pM]": 1300}

Where these numbers come from: patent US20240327535A1
